Values from patent US20220259288A1

- assayedSystem: T1, HLA-DRB1*12:01 (human)
- T1 construct: MHC class II molecule; how it was prepared for the assay is not described
- assayMethodText: HLA class II competition binding assay
quantityName: IC50 (µM)

1. LSQLQTYMIQFDQYI [ApoB100 peptide 3563.0012]
2. TLTAFGFASADLIEI [ApoB100 peptide 3563.0005]
Q: Given 1 and 2 , report the one with the higher recorded IC50. To answer, give the label that identifies your chosen option.
A: 2
